# credit: patent US20250296948A1

assay: 6 month dry powder stability, Alpha Naphthol content by HPLC; format: physicochemical; details: 25 ° C., 6 months
Measurement Kind: Alpha Naphthol by HPLC (% w/w)
Output spec: scalar in % w/w, unitless text.

Prompt: Sample C[C@H](NP(=O)(OC[C@H]1O[C@@H](n2cc(F)c(=O)[nH]c2=O)CC1O)Oc1cccc2ccccc12)C(=O)OCc1ccccc1 (stereo partly shown) [Example 3, Batch 1] — what was its Alpha Naphthol by HPLC (% w/w)?
Completion: 0.14

Prompt: Sample C[C@H](NP(=O)(OC[C@H]1O[C@@H](n2cc(F)c(=O)[nH]c2=O)CC1O)Oc1cccc2ccccc12)C(=O)OCc1ccccc1 (stereo partly shown) [Example 3, Batch 2] — what was its Alpha Naphthol by HPLC (% w/w)?
Completion: 0.42

Prompt: Sample C[C@H](NP(=O)(OC[C@H]1O[C@@H](n2cc(F)c(=O)[nH]c2=O)CC1O)Oc1cccc2ccccc12)C(=O)OCc1ccccc1 (stereo partly shown) [Comparative Example 4] — what was its Alpha Naphthol by HPLC (% w/w)?
Completion: 0.10

Prompt: Sample C[C@H](NP(=O)(OC[C@H]1O[C@@H](n2cc(F)c(=O)[nH]c2=O)CC1O)Oc1cccc2ccccc12)C(=O)OCc1ccccc1 (stereo partly shown) [Example 3, Batch 3] — what was its Alpha Naphthol by HPLC (% w/w)?
Completion: 0.17
